# TARGET_ENTITY: dopamine D2 receptor (Rattus norvegicus)
# Construct: homogenized rat striatal brain tissue
# Sequence (P61169 whole entry): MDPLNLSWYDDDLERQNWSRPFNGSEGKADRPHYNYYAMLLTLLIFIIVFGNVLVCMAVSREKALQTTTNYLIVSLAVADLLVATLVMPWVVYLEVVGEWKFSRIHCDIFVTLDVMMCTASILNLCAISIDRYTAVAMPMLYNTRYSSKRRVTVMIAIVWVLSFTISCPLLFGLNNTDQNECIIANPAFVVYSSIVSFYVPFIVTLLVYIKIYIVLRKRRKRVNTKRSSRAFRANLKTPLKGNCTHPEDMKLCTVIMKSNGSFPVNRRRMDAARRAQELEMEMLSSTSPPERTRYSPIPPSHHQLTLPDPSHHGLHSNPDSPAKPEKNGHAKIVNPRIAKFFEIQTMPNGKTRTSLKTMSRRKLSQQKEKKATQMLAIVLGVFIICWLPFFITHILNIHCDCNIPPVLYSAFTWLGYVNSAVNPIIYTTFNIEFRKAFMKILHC
# ASSAY_PROTOCOL: Affinity for the dopamine D2 receptor (3H-quinpirole, rat striatal brain tissue homogenate)
# RUN_CONDITIONS: homogenized rat striatal brain tissue
PARAMETER: IC50 (pM)

Use the examples below as a reference point.
O=C1Cc2c(ccc3c2O[C@@H](CNCC2CCCCC2)CO3)N1 | 370
O=C1Cc2c(ccc3c2O[C@@H](CNCCCOc2ccc4cccnc4c2)CO3)N1 | 1390
O=C1Cc2c(ccc3c2O[C@@H](CNCCCc2c[nH]c4ccccc24)CO3)N1 | 140
O=C1Cc2c(ccc3c2O[C@@H](CNCc2cccs2)CO3)N1 | 510

1: O=C1Cc2c(c(F)cc3c2O[C@@H](CNCc2ccc(F)cc2)CO3)N1
2: Cc1ccc(CNC[C@H]2COc3cc(F)c4c(c3O2)CC(=O)N4)cc1
Given 1 and 2 , report the one with the higher recorded IC50. Indicate your choice by writing its label.
1

A: O=C1Cc2c(c(F)cc3c2O[C@@H](CNCCCc2c[nH]c4ccccc24)CO3)N1
B: CN(C)c1cccc(OCCCNC[C@H]2COc3ccc4c(c3O2)CC(=O)N4)c1
Lab log: flag the item ( A or B ) with the smaller IC50 figure. Indicate your choice by writing its label.
A
